TARGET SYSTEM: T1, Cyno ASGR-1 (cynomolgus monkey, UniProt P07306 1-291 (human entry))
T1 construct: Expressed on HEK 293 cells or as membrane prep on beads; cDNA from XP_005582755; also called cynomologus monkey ASGR-1
T1 chain: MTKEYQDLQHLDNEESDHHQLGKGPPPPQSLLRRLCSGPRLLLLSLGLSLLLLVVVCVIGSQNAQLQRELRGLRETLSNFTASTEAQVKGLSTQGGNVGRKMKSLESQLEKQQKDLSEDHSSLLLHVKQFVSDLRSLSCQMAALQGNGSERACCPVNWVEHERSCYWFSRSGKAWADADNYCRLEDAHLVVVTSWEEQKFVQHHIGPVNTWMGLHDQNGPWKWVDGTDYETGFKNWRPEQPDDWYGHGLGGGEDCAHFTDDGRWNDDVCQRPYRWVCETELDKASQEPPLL
METHOD SUMMARY: FACS on transfected HEK 293 cells or membrane preps on beads; Y = signal at least 2x irrelevant IgG
Experimental: Human ASGR-1-specific, ligand competing antibody samples were tested for binding to ASGR-1 from other species (cynomologus monkey ASGR-1, mouse ASGR-1, rat ASGR-1, dog ASGR-1, and pig ASGR-1) as well as to human ASGR-2 in FACS binding assays at normalized antibody concentrations. […] Samples were analyzed using a BD Accuri™ Flow Cytometer and an Intellicyt HyperCyt Autosampler. […] Samples were analyzed using an Intellicyt iQue™ Screener Platform. […]

{"BINDER": "25A4 (antibody, V domains shown, Tested as hybridoma supernatant at normalized concentration) VH: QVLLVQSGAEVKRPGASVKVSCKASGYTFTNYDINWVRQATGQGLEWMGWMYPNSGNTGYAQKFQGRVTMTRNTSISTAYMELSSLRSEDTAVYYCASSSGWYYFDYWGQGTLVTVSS VL: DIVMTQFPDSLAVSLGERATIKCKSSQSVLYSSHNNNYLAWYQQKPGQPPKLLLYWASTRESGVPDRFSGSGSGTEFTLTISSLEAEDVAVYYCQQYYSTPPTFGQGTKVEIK", "binding result": "binds"}
{"BINDER": "4B1 (antibody, V domains shown, Tested as hybridoma supernatant at normalized concentration) VH: QVQLQESGPGLVKPSETLSLTCSVSGDSISSYSWSWIRQPAGKGLEWIGRIYTSGSTNYIPSLKSRITMSVDTSKKQFSLKLSSVTAADTAVYYCARDLKSSGCLFFDYWGQGTLVTVSS VL: DIQMTQSPSSLSASVGDRVTITCRASHTIRTYLNWYQQKPGKAPKLLIYAASSLQSGVPSRINGSGSGTDFTLTITNLQPEDFATYYCQQSYNISFTFGPGTKVDIK", "binding result": "binds"}
{"BINDER": "56E5 (antibody, V domains shown, Tested as hybridoma supernatant at normalized concentration) VH: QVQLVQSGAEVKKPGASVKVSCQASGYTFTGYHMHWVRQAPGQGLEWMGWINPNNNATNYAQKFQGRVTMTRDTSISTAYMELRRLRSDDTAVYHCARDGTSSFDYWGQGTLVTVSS VL: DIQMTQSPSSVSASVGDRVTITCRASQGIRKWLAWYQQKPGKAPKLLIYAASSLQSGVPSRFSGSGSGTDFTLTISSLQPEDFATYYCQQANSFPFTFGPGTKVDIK", "binding result": "binds"}
